tested on: rodent lifetime carcinogenesis bioassay, tumor incidence TD50; assay: carcinogenic potency in animals, long-term in vivo studies, CPDB compilation (AID 1745844); conditions: rat; strain Fischer 344; males; in feed; site: ear canal + Zymbal's gland; lesion: squamous-cell carcinoma + squamous-cell papilloma; dosed 78 weeks; study length 106 weeks
experimental readout: TD50 (mg/kg/day)
A number alone suffices; assume mg/kg/day.

State its TD50: c1ccc(NNc2ccccc2)cc1 35.8

----------
tested on: rodent lifetime carcinogenesis bioassay, tumor incidence TD50; assay: carcinogenic potency in animals, long-term in vivo studies, CPDB compilation (AID 1745844); conditions: rat; strain Wistar; males; inhaled; site: lung; lesion: adenosquamous carcinoma; dosed 60 weeks; study length 134 weeks
experimental readout: TD50 (mg/kg/day)
Supply the numeric figure in mg/kg/day, leaving out any unit text.

Please give measured TD50 of the following entry: O=S(=O)([O-])[O-].[Cd+2] 0.219

----------
system: rodent lifetime carcinogenesis bioassay, tumor incidence TD50; test: carcinogenic potency in animals, long-term in vivo studies, CPDB compilation (AID 1745844); conditions: rat; strain Fischer 344; females; in feed; site: liver; lesion: angiosarcoma; dosed 92 weeks; study length 104 weeks
experimental readout: TD50

Let me know recorded TD50 for C/C=C(/C)C(=O)O[C@H]1CCN2CC=C(COC(=O)[C@@](O)([C@H](C)OC)C(C)(C)O)[C@H]12 , thanks. 0.355 mg/kg/day

----------
tested on: rodent lifetime carcinogenesis bioassay, tumor incidence TD50; assay: carcinogenic potency in animals, long-term in vivo studies, CPDB compilation (AID 1745844); details: mouse; strain C57BL/6JfC3Hf/Nctr x BALB/cStCrlfC3Hf/Nctr; males; in drinking water; site: liver; lesion: hepatocellular carcinoma; dosed 60 weeks; study length 60 weeks
experimental readout: TD50

Complete the entry with TD50 for Nc1ccc(-c2ccc(N)cc2)cc1 97.5 mg/kg/day

----------
tested on: rodent lifetime carcinogenesis bioassay, tumor incidence TD50; experiment: carcinogenic potency in animals, long-term in vivo studies, CPDB compilation (AID 1745844); conditions: hamster; strain Syrian Golden; males; inhaled; site: skin; lesion: epithelioma; dosed 30 weeks; study length 101 weeks
experimental readout: TD50

Write down TD50 measured for item C=CCl 9350 mg/kg/day

----------
test system: rodent lifetime carcinogenesis bioassay, tumor incidence TD50; assay: carcinogenic potency in animals, long-term in vivo studies, CPDB compilation (AID 1745844); conditions: mouse; strain Ha/ICR; females; i.p.; site: lung; lesion: papillary tumor; dosed 64 weeks; study length 64 weeks
Strictly below 7 mg/kg/day in TD50: rule met. Otherwise: rule not met.

Before answering, review these 3 worked examples.
{"columns": ["molecule", "class name"],
 "data": [
  ["ClCC1CO1 (stereo not given)", "rule not met"],
  ["CN(C)C(=O)Cl", "rule met"],
  ["O=S1OCCO1", "rule met"]
]}

From here, focus on the item given below.
Does this molecule meet the criterion TD50 < 7 mg/kg/day? CCOP(=O)(CC1CO1)OCC (stereo not given) rule not met

----------
test system: rodent lifetime carcinogenesis bioassay, tumor incidence TD50; test: carcinogenic potency in animals, long-term in vivo studies, CPDB compilation (AID 1745844); settings: rat; strain Fischer 344; males; by gavage; site: liver; lesion: hepatocellular adenoma + hepatocellular carcinoma + neoplastic nodule; dosed 25 weeks; study length 118 weeks
experimental readout: TD50 (mg/kg/day)
// units = mg/kg/day; emit number, no label

Name the recorded TD50 of the item Brc1cc(Br)c(-c2cc(Br)c(Br)cc2Br)cc1Br in your answer. 0.151

----------
tested on: rodent lifetime carcinogenesis bioassay, tumor incidence TD50; assay: carcinogenic potency in animals, long-term in vivo studies, CPDB compilation (AID 1745844); conditions: mouse; strain B6C3F1; females; inhaled; site: lung; lesion: alveolar/bronchiolar adenoma; dosed 83 weeks; study length 104 weeks
experimental readout: TD50

Complete the entry with TD50 for C=CC=C 20.3 mg/kg/day

----------
test system: rodent lifetime carcinogenesis bioassay, tumor incidence TD50; assay: carcinogenic potency in animals, long-term in vivo studies, CPDB compilation (AID 1745844); conditions: mouse; strain B6C3F1; males; oral dosing; site: lung; lesion: several types; types named in the paper; dosed 70 weeks; study length 70 weeks
experimental readout: TD50

Tell me its TD50 given CCOC(N)=O as the entry. 65.9 mg/kg/day

----------
system: rodent lifetime carcinogenesis bioassay, tumor incidence TD50; assay: carcinogenic potency in animals, long-term in vivo studies, CPDB compilation (AID 1745844); conditions: rat; strain Fischer 344; females; in feed; site: all sites; lesion: mononuclear-cell leukemia; dosed 103 weeks; study length 104 weeks
experimental readout: TD50

Answer with the recorded TD50 of COc1ccccc1[N+](=O)[O-] only. 152 mg/kg/day

----------
test system: rodent lifetime carcinogenesis bioassay, tumor incidence TD50; experiment: carcinogenic potency in animals, long-term in vivo studies, CPDB compilation (AID 1745844); conditions: mouse; strain B6C3F1; females; by gavage; site: forestomach; lesion: adenosquamous carcinoma + carcinoma, NOS + squamous-cell carcinoma + squamous-cell papilloma; dosed 102 weeks; study length 103 weeks
experimental readout: TD50

Retrieve TD50 measured for CC(C)=CCl and print it. 14.3 mg/kg/day

----------
tested on: rodent lifetime carcinogenesis bioassay, tumor incidence TD50; assay: carcinogenic potency in animals, long-term in vivo studies, CPDB compilation (AID 1745844); conditions: mouse; strain B6C3F1; males; in drinking water; site: liver; lesion: several types; types named in the paper; dosed 104 weeks; study length 104 weeks
The source made the active and inactive calls. How the calls were made is not given here.
experimental readout: TD50

Please supply the value of reported TD50 for the item ClCCl 1310 mg/kg/day (inactive)

----------
Entries and their measured TD50 follow.
test system: rodent lifetime carcinogenesis bioassay, tumor incidence TD50; assay: carcinogenic potency in animals, long-term in vivo studies, CPDB compilation (AID 1745844); settings: rat; strain Fischer 344; males; in feed; site: testis; lesion: interstitial-cell tumor; dosed 104 weeks; study length 104 weeks
Activity calls are given as the source filed them. No rule for the calls is given here.

{"columns": ["compound", "TD50"],
 "data": [
  ["ClC1(Cl)C2(Cl)C3(Cl)C4(Cl)C(Cl)(Cl)C5(Cl)C3(Cl)C1(Cl)C5(Cl)C24Cl (configuration not stated)", "0.708 mg/kg/day"]
]}

Next compound, please.
Tell me measured TD50 for Brc1cc(Br)c2cccnc2c1 please. 69.4 mg/kg/day (inactive)

----------
test system: rodent lifetime carcinogenesis bioassay, tumor incidence TD50; test: carcinogenic potency in animals, long-term in vivo studies, CPDB compilation (AID 1745844); conditions: mouse; strain B6C3F1; females; in drinking water; site: liver; lesion: hepatocellular adenoma + hepatoblastoma + hepatocellular carcinoma; dosed 104 weeks; study length 104 weeks
experimental readout: TD50 (mg/kg/day)
Only the number, expressed in mg/kg/day, is required.

Tell me TD50 reported for c1ccncc1 150

----------
system: rodent lifetime carcinogenesis bioassay, tumor incidence TD50; experiment: carcinogenic potency in animals, long-term in vivo studies, CPDB compilation (AID 1745844); conditions: hamster; strain Syrian Golden; males; inhaled; site: all sites; lesion: leukemia; dosed 30 weeks; study length 101 weeks
experimental readout: TD50 (mg/kg/day)
Express your answer in mg/kg/day, writing the number without its unit.

Quote TD50 reported for C=CCl please. 25800

----------
tested on: rodent lifetime carcinogenesis bioassay, tumor incidence TD50; experiment: carcinogenic potency in animals, long-term in vivo studies, CPDB compilation (AID 1745844); settings: rat; strain Fischer 344; females; inhaled; site: mammary gland; lesion: fibroadenoma + fibroadenoma, multiple; dosed 105 weeks; study length 105 weeks
experimental readout: TD50

Let me know recorded TD50 for C=CC(=C)C , thanks. 3340 mg/kg/day

----------
system: rodent lifetime carcinogenesis bioassay, tumor incidence TD50; test: carcinogenic potency in animals, long-term in vivo studies, CPDB compilation (AID 1745844); conditions: mouse; strain B6C3F1; females; by gavage; site: all sites; lesion: malignant lymphoma, mixed type; dosed 103 weeks; study length 106 weeks
experimental readout: TD50

Report value only: TD50, rodent lifetime carcinogenesis bioassay, tumor incidence TD50, C=CCOC(=O)CC(C)C 102 mg/kg/day

----------
system: rodent lifetime carcinogenesis bioassay, tumor incidence TD50; assay: carcinogenic potency in animals, long-term in vivo studies, CPDB compilation (AID 1745844); conditions: rat; strain Wistar; females; inhaled; site: kidney; lesion: cystadenoma; dosed 78 weeks; study length 150 weeks
experimental readout: TD50

Entry ClC#CCl needs its TD50 filled in; supply it. 11.5 mg/kg/day

----------
test system: rodent lifetime carcinogenesis bioassay, tumor incidence TD50; assay: carcinogenic potency in animals, long-term in vivo studies, CPDB compilation (AID 1745844); details: rat; strain Fischer 344; males; in feed; site: Zymbal's gland; lesion: one or several types; types not named; dosed 53 weeks; study length 63 weeks
experimental readout: TD50

Answer with reported TD50 of Cn1c(N)nc2c3cccnc3ccc21 1.2 mg/kg/day

----------
tested on: rodent lifetime carcinogenesis bioassay, tumor incidence TD50; experiment: carcinogenic potency in animals, long-term in vivo studies, CPDB compilation (AID 1745844); settings: mouse; strain B6C3F1; males; in feed; site: duodenum; lesion: adenoma; dosed 104 weeks; study length 104 weeks
experimental readout: TD50
Could you kindly put the unit after your number?

Retrieve TD50 on rodent lifetime carcinogenesis bioassay, tumor incidence TD50; query O=C1c2ccccc2C(=O)N1SC(Cl)(Cl)Cl 23000 mg/kg/day
